Data provenance is paper PMC7114882.

Test system: Jurkat cells (T-lymphocyte leukemia)
Test: MTT assay of Jurkat cells
Type: cell-based
Details: Homo sapiens, Jurkat, read-out: EC50, cell death of Jurkat cells
READOUT: EC50

                                   molecule  assay_result
0  CN1CCN(CCCN2c3ccccc3Sc3ccc(C(F)(F)F)cc32)CC1 [TFP, trifluoperazine]        ~50 µM

----------
System: Jurkat cells
Assay: MTT assay of Jurkat cells with 4 in the presence of inhibitors
Assay type: cell-based
Details: 4 (25 μM), 1 h; BAPTA/AM 20 μM
READOUT: Inhibition of cell death induced by 4 (MTT, microscopy)

>>> print(df.to_string())
                           substance_smiles           assay_result
0              Oc1c2ccccc2c2c3c(cccc13)N=N2  negligible inhibition
1  O=C(Nc1ccc2[nH]nc(-c3ccncc3)c2c1)[C@@H]1CCN(CC(=O)N2CCN(c3ccc(-c4ncccn4)cc3)CC2)C1  negligible inhibition
2  N#CC(=C(/N)Sc1ccccc1N)/C(C#N)=C(/N)Sc1ccccc1N  negligible inhibition
